PROTOCOL TEXT: Automated patch clamp (Tonic Block): Test Protocol for Determining the Potency of Compounds on Nav1.2 and Nav1.6 Subtypes of Voltage-Gated Sodium Ion Channels Expressed in Mammalian CellsCell culture procedures: Chinese hamster ovary (CHO) cells were stably transfected with the cDNA sequence of either the human SCN2A or SCN8A genes to create hNav1.2 or hNav1.6 cells respectively. The cell lines were cultured in Ham's F-12 medium supplemented with 10% fetal bovine serum and antibiotics in a tissue incubator at 37° C. under a humidified air/CO2 mixture (95/5 v/v). On the day of the experiment, cells were washed twice with Hank's balanced salt solution, treated with trypsin, and resuspended in fresh culture media at a density of 4−6×10^6 cells in 20 ml. Immediately before placing in the IonWorks Quattro instrument, cells were washed in Hank's balanced salt solution to remove culture medium and re-suspended in 3 ml of Hank's balanced salt solution. Automated patch clamp recordings of cells using the IonWorks Quattro Instrument: The assay used a 384 microwell plate, which enabled 20 compounds to be studied at four different concentrations in quadruplicate as well as allowing a vehicle control group and a positive control group using mexiletine at 8 different concentrations. Cells were added to the wells of the Population Patch Clamp planar electrode using a 48-channel pipettor in a volume of 6 μL, per well. After 5 minutes incubation at ambient temperature with compounds or vehicle, membrane currents were recorded using the patch clamp amplifier. The pulse pattern was repeated twice, before and after compound addition and peak current amplitudes were measured at TP11 to measure 10 Hz Frequency-dependent Block. Data analysis: Data acquisition and analyses were carried out using the IonWorks Quattro system operation software which uses an algorithm to correct data for leak currents. Concentration-response curves were fitted by non-linear least squares regression allowing calculation of an IC50 value (μM), being the concentration of the compound producing half-maximal inhibition.
PROPERTY MEASURED: IC50

{"CHEMICAL SMILES": "Cc1cccc(C)c1OCCCNCc1cccc(C#N)c1", "IC50": "2 µM"}
{"CHEMICAL SMILES": "Cc1cccc(C)c1OCCCNCc1cccc(C(F)(F)F)c1", "IC50": "> 10 µM"}
{"CHEMICAL SMILES": "Cc1n[nH]c(C)c1OCCCNC(c1ccccn1)c1ccccn1", "IC50": "> 10 µM"}
{"CHEMICAL SMILES": "Cc1n[nH]c(C)c1OCCCNCc1cccc(-c2cncnc2)c1", "IC50": "> 10 µM"}

# evaluate next
QUERY: Value lookup for IC50; key = `Cc1nn(C)c(C)c1OCCCNCc1cccc(-c2cncnc2)c1`
RESULT: > 10 µM

Where do these numbers come from? They come from ChEMBL document CHEMBL5727547.
